# Test system: anti-HER2 antibody Trastuzumab
# assay-comment: Coupling of linker-drug conjugates with Trastuzumab
# Format: physicochemical
# run-conditions: highest DAR (excessive coupling)
Starred links: 1 amine or outer side, 2 acyl side, 3 side chain; linkers in the order of their positions; H or OH if unused. Non-standard residues stand in square brackets, D forms with d. Residues, ends and D or L forms follow the SMILES beside them. *: point of attachment. Exatecan = CC[C@@]1(O)C(=O)OCc2c1cc1n(c2=O)Cc2c-1nc1cc(F)c(C)c3c1c2[C@@H](N*)CC3; X1 = O=C1C=C(Br)C(=O)N1CCCCCC(=O)*; NHCH2OCH2CO = O=C(COCN[*:1])[*:2]
quantity-name: Ratio of aggregates (%)

compound	result-value
CC[C@@]1(O)C(=O)OCc2c1cc1n(c2=O)Cc2c-1nc1cc(F)c(C)c3c1c2[C@@H](NC(=O)COCNC(=O)CNC(=O)[C@H](Cc1ccccc1)NC(=O)CNC(=O)CNC(=O)CCCCCN1C(=O)C=C(Br)C1=O)CC3 [LE05] (X1-GGFG[NHCH2OCH2CO]-Exatecan)	0.1
CC[C@@]1(O)C(=O)OC(=O)C2=C1C=C1c3nc4cc(F)c(C)c5c4c(c3CN1C2)[C@@H](NC(=O)COCN(CCS(C)(=O)=O)C(=O)OCc1ccc(NC(=O)[C@H](C)NC(=O)[C@@H](NC(=O)CCCn2cc(CNC(=O)CCCCCN3C(=O)C=CC3=O)nn2)C(C)C)cc1)CC5 [LE19]	0.2
CC[C@@]1(O)C(=O)OC(=O)C2=C1C=C1c3nc4cc(F)c(C)c5c4c(c3CN1C2)[C@@H](NC(=O)COCN(CCS(C)(=O)=O)C(=O)OCc1ccc(NC(=O)[C@H](C)NC(=O)[C@@H](NC(=O)CCCCCN2C(=O)C=CC2=O)C(C)C)cc1)CC5 [LE14]	0.3
CC[C@@]1(O)C(=O)OC(=O)C2=C1C=C1c3nc4cc(F)c(C)c5c4c(c3CN1C2)[C@@H](NC(=O)COCN(CCS(C)(=O)=O)C(=O)OCc1ccc(NC(=O)[C@H](C)NC(=O)[C@@H](NC(=O)C2CCC(CN3C(=O)C=CC3=O)CC2)C(C)C)cc1)CC5 (some centres unmarked) [LE16]	0.5
CC[C@@]1(O)C(=O)OC(=O)C2=C1C=C1c3nc4cc(F)c(C)c5c4c(c3CN1C2)[C@@H](NC(=O)COCN(CCN(C)C)C(=O)OCc1ccc(NC(=O)[C@H](C)NC(=O)[C@@H](NC(=O)C2CCC(CN3C(=O)C=CC3=O)CC2)C(C)C)cc1)CC5 (some centres unmarked) [LE17]	0.1

====

# System: anti-Claudin18.2 antibody IMAB362
# assay-comment: Coupling of linker-drug conjugates with IMAB362
# Type: physicochemical
# run-conditions: coupling with IMAB362, highest DAR (excessive coupling)
Starred links: 1 amine or outer side, 2 acyl side, 3 side chain; linkers in the order of their positions; H or OH if unused. Non-standard residues stand in square brackets, D forms with d. Residues, ends and D or L forms follow the SMILES beside them. *: point of attachment. Exatecan = CC[C@@]1(O)C(=O)OCc2c1cc1n(c2=O)Cc2c-1nc1cc(F)c(C)c3c1c2[C@@H](N*)CC3; Hexanoyl(6-maleimido) = O=C1C=CC(=O)N1CCCCCC(=O)*; NHCH2OCH2CO = O=C(COCN[*:1])[*:2]

compound	Whether precipitation
CCC1(O)C(=O)OC(=O)C2=C1C=C1c3nc4cc(F)c(C)c5c4c(c3CN1C2)C(NC(=O)COCNC(=O)CNC(=O)C(Cc1ccccc1)NC(=O)CNC(=O)CNC(=O)C(CCCCN1C(=O)C=CC1=O)S(=O)(=O)O)CC5 (stereo not shown)	No
CC[C@@]1(O)C(=O)OCc2c1cc1n(c2=O)Cc2c-1nc1cc(F)c(C)c3c1c2[C@@H](NC(=O)COCNC(=O)CNC(=O)[C@H](Cc1ccccc1)NC(=O)CNC(=O)[C@H](CCCCN)NC(=O)CCCCCN1C(=O)C=CC1=O)CC3.O=C(O)C(F)(F)F [LE07] ({Hexanoyl(6-maleimido)}-KGFG[NHCH2OCH2CO]-Exatecan)	No
CC[C@@]1(O)C(=O)OC(=O)C2=C1C=C1c3nc4cc(F)c(C)c5c4c(c3CN1C2)[C@@H](NC(=O)COCN(CCN(C)C)C(=O)OCc1ccc(NC(=O)[C@H](C)NC(=O)[C@@H](NC(=O)CCCCCN2C(=O)C=CC2=O)C(C)C)cc1)CC5	No
